target: REV7^R124A (human, UniProt Q9UI95 1-211, R124A); assay: SPR
pKd: −log10 of the molar value.
assay_endpoint: pKd

# binder, assay_endpoint, recorded_value
data = [
    ("SHLD3^1-62 (domain or fragment, human, UniProt Q6ZNX1 1-62, looked up, SHLD3, human, residues 1-62; The general protocol cleaves the tag; also called SHLD3^RBM; source: E. coli LOBSTR, purified) MTTEVILHYRPCESDPTQLPKIAEKAIQDFPTRPLSRFIPWFPYDGSKLPLRPKRSPPVISE", "pKd", "~7.17"),
]
